Reported IC50 values for the following compounds.
molecular target: PI3Kα H1047R (T47D cells) (Homo sapiens, UniProt P42336, H1047R); construct: endogenous in cells; host or cells: T47D cells; assay: PI3Kα cellular assay: pAKT HTRF in T47D cells after EGF stimulation; format: cell-based; details: T47D cells (PI3Kα H1047R), pAKT S473 HTRF, EGF stimulation
Sequence (P42336 whole entry H1047R): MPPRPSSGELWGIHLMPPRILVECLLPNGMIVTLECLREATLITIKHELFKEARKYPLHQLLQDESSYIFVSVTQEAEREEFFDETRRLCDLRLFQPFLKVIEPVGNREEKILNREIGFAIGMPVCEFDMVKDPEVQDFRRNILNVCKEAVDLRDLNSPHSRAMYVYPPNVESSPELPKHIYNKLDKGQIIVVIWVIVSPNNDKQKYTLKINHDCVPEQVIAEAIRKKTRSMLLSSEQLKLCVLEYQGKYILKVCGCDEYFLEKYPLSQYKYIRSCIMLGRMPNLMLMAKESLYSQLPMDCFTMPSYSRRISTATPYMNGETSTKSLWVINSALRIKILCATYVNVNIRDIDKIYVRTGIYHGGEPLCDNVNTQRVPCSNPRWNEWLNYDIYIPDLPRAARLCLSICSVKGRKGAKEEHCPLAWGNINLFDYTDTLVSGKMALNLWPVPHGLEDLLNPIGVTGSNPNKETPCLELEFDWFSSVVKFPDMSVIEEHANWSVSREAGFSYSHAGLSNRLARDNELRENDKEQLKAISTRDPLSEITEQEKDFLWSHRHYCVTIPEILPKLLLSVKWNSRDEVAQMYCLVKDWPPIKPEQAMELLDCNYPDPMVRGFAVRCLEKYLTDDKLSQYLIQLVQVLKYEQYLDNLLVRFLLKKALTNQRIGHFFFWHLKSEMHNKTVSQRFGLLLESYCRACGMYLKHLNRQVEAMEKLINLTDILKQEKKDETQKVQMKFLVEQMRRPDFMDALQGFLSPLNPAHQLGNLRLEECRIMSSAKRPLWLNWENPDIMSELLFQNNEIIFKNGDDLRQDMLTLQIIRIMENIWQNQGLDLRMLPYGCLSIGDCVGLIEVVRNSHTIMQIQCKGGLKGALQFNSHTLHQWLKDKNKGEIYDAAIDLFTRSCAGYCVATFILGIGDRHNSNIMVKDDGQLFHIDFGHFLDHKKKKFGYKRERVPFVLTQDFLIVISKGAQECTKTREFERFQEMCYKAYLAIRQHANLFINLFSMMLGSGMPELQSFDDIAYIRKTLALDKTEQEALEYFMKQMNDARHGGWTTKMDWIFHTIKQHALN
Sequence (P27986 whole entry partner): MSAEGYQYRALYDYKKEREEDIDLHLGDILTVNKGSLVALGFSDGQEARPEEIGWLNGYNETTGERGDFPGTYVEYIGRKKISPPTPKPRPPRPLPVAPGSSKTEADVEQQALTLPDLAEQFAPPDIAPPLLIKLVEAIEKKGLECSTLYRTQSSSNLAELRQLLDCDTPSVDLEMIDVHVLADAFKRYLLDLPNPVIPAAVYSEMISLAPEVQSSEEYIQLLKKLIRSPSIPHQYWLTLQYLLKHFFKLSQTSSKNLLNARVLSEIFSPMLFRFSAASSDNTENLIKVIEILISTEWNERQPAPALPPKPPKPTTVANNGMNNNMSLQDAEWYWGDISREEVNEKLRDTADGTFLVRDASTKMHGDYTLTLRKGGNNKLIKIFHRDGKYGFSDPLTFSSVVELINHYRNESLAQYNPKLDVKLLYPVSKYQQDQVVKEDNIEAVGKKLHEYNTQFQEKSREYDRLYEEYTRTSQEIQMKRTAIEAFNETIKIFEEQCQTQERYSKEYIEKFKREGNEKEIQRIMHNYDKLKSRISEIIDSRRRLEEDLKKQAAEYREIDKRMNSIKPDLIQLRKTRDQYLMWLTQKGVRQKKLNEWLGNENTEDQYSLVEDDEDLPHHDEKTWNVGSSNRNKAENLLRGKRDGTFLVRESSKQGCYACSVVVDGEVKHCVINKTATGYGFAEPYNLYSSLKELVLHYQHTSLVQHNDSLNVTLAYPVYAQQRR

# count of solved cases: 3
INSERT INTO results (compound, quantitykind, reportedmeasurement) VALUES
  ('Cc1cc([C@@H](C)Nc2ccccc2C(=O)O)c2nc(-c3ccc4c(c3)c(C)nn4C3CC3)c(C)c(=O)n2c1 (single isomer, unassigned) [Compound 892]', 'IC50', '< 100 nM'),
  ('Cc1cc([C@H](C)Nc2ccccc2C(=O)O)c2nc(-c3cnc4c(c3)c(C)nn4C)c(C)c(=O)n2c1 [Compound 763]', 'IC50', '500 to 2000 nM'),
  ('CNc1nn(C)c2ccc(-c3cc(=O)n4cc(C)cc(C(C)Nc5ccccc5C(=O)O)c4n3)cc12 (stereo not shown) [Compound 758]', 'IC50', '100 to 500 nM');

## Task Tell me the measured IC50 of Cc1cc([C@H](C)Nc2ccccc2S(N)(=O)=O)c2nc([C@@H]3CCCN(CC(F)F)C3)c(C)c(=O)n2c1 [Compound 1311] , please.
## Result > 2000 nM

## Task Tell me the measured IC50 of Cc1cc(C(C)Nc2ccccc2C(=O)O)c2nc(-n3cc(C(N)=O)c4ccccc43)cc(=O)n2c1 (stereo not shown) [Compound 771] , please.
## Result 500 to 2000 nM

## Task Tell me the measured IC50 of Cc1cc(C(C)Nc2ccccc2C(=O)O)c2nc(-c3ccc4c(c(N)nn4C)c3C)cc(=O)n2c1 (stereo not shown) [Compound 701] , please.
## Result > 2000 nM

## Task Tell me the measured IC50 of Cc1cc([C@H](C)Nc2ccccc2C(N)=O)c2nc(-c3ccc(C4CC4)nc3)c(C)c(=O)n2c1 [Compound 1154] , please.
## Result > 2000 nM

## Task Tell me the measured IC50 of Cc1cc([C@@H](C)Nc2ccccc2C(=O)O)c2nc(-c3ccc4c(C)nn(C)c4c3)c(C)c(=O)n2c1 [Compound 927] , please.
## Result < 100 nM

## Task Tell me the measured IC50 of Cc1cc([C@H](C)Nc2ccccc2C(=O)O)c2nc(N3Cc4ccccc4[C@H]3C)cc(=O)n2c1 [Compound 654] , please.
## Result 500 to 2000 nM

## Task Tell me the measured IC50 of Cc1cc([C@H](C)Nc2cccc(CO)c2C(=O)O)c2nc(-c3ccc4c(c3)c(C)nn4C)cc(=O)n2c1 [Compound 941] , please.
## Result > 2000 nM

## Task Tell me the measured IC50 of Cc1cc([C@H](C)Nc2ccccc2C(=O)O)c2nc(-c3ccc4c(c3)c(C(F)(F)F)nn4C)cc(=O)n2c1 [Compound 738] , please.
## Result > 2000 nM

## Task Tell me the measured IC50 of C=CC(=O)Nc1ccc(C(=O)O)c(NC(C)c2cc(C)cn3c(=O)c(C)c(N4Cc5ccccc5C4)nc23)c1 (stereo not shown) [Compound 1039] , please.
## Result > 2000 nM

## Task Tell me the measured IC50 of Cc1cc(C(C)Nc2ccccc2C(=O)O)c2nc(-c3cccc(F)c3)c(C3CC3)c(=O)n2c1 (stereo not shown) [Compound 1231] , please.
## Result < 100 nM

## Task Tell me the measured IC50 of Cc1cc([C@@H](C)N[C@@H](C(=O)O)c2ccccc2)c2nc(N3CCOCC3)cc(=O)n2c1 [Compound 649] , please.
## Result > 2000 nM

## Task Tell me the measured IC50 of Cc1cc([C@@H](C)Nc2ccccc2C(=O)O)c2nc(-c3ccc4c(c3)CC(F)(F)C4)c(C)c(=O)n2c1 [Compound 853] , please.
## Result < 100 nM

## Task Tell me the measured IC50 of Cc1cc([C@@H](C)Nc2ccccc2S(N)(=O)=O)c2nc(-c3ccc4c(c3)c(C)nn4C3CC3)c(C)c(=O)n2c1 [Compound 961] , please.
## Result 100 to 500 nM

## Task Tell me the measured IC50 of Cc1cc(C(C)Nc2ccccc2C(=O)O)c2nc(N3Cc4ccccc4C3)c(C#N)c(=O)n2c1 (stereo not shown) [Compound 1160] , please.
## Result < 100 nM

## Task Tell me the measured IC50 of Cc1cc([C@@H](C)Nc2ccccc2C(=O)O)c2nc(-c3cccc(C(F)F)c3)cc(=O)n2c1 [Compound 1113] , please.
## Result > 2000 nM

## Task Tell me the measured IC50 of Cc1cc([C@H](C)Oc2ccccc2C2(O)CS(=O)(=O)C2)c2nc(-c3cccc(F)c3)c(C)c(=O)n2c1 (single isomer, unassigned) [Compound 1393] , please.
## Result < 100 nM

## Task Tell me the measured IC50 of Cc1cc([C@@H](C)Nc2ccccc2C(=O)O)c2nc(-c3cccnc3)c(C)c(=O)n2c1 (single isomer, unassigned) [Compound 949] , please.
## Result < 100 nM

## Task Tell me the measured IC50 of Cc1cc(CCNc2ccc(F)cc2C(=O)O)c2nc(N3CCOCC3)cc(=O)n2c1 [Compound 806] , please.
## Result > 2000 nM

## Task Tell me the measured IC50 of Cc1cc([C@H](C)Nc2ccccc2C(=O)O)c2nc(-c3ccnc(C4CC4)c3)c(C)c(=O)n2c1 [Compound 954] , please.
## Result 500 to 2000 nM

## Task Tell me the measured IC50 of Cc1cc(C(C)Nc2ccccc2S(N)(=O)=O)c2nc(-c3ccc(C4CCNCC4)nc3)c(C)c(=O)n2c1 (stereo not shown) [Compound 1304] , please.
## Result 500 to 2000 nM

###

target: PI3Kα H1047R (T47D cells) (Homo sapiens, UniProt P42336, H1047R); construct: endogenous in cells; host or cells: T47D cells; experiment: PI3Kα cellular assay: pAKT HTRF in T47D cells after EGF stimulation; format: cell-based; conditions: selectivity of T47D (H1047R) over SKBR3 (WT) pAKT IC50
quantityKind: T47D pAKT S473 HTRF IC50 (H1047R): T47D (H1047R) selectivity over SKBR3 (WT)

# count of solved cases: 5
INSERT INTO assay_data (compound, reportedmeasurement) VALUES
  ('Cc1cc(C(C)Nc2ccccc2C(=O)O)c2nc(-c3ccc4c(c3)c(N)nn4C3CC3)cc(=O)n2c1 (centres unmarked) [Compound 870]', 'A (A denotes >20-fold)'),
  ('Cc1cc([C@H](C)Nc2cccc(CO)c2C(=O)O)c2nc(-c3ccc4c(c3)c(C)nn4C)cc(=O)n2c1 [Compound 941]', 'C (C denotes ≤5-fold)'),
  ('Cc1cc([C@H](C)Nc2ccccc2C(=O)O)c2nc(N3C[C@H]4C[C@@H](C5CCN(S(=O)(=O)N(C)C)CC5)C[C@H]4C3)cc(=O)n2c1 [Compound 935]', 'C (C denotes ≤5-fold)'),
  ('Cc1cc([C@H](C)Nc2ccccc2-c2ccnnc2)c2nc(N3Cc4ccccc4C3)c(C)c(=O)n2c1 (single isomer, unassigned) [Compound 848]', 'A (A denotes >20-fold)'),
  ('CCC(=O)N=S(C)(=O)c1ccccc1N[C@@H](C)c1cc(C)cn2c(=O)cc(N3CCOCC3)nc12 (some centres unmarked) [Compound 829]', 'C (C denotes ≤5-fold)');

## Task Tell me the measured T47D pAKT S473 HTRF IC50 (H1047R): T47D (H1047R) selectivity over SKBR3 (WT) of Cc1cc(C(C)NC2CCN(S(=O)(=O)N(C)C)C2)c2nc(N3Cc4ccccc4C3)cc(=O)n2c1 (centres unmarked) [Compound 834] , please.
## Result C (C denotes ≤5-fold)

## Task Tell me the measured T47D pAKT S473 HTRF IC50 (H1047R): T47D (H1047R) selectivity over SKBR3 (WT) of Cc1cc([C@@H](C)Nc2ccccc2C(=O)O)c2nc(-c3cnc(C)c(Cl)c3)c(C)c(=O)n2c1 [Compound 1052] , please.
## Result A (A denotes >20-fold)

###

molecular target: PI3Kα H1047R (T47D cells) (Homo sapiens, UniProt P42336, H1047R); construct: endogenous in cells; host or cells: T47D cells; assay: PI3Kα cellular assay: pAKT HTRF in T47D cells after EGF stimulation; assay type: cell-based; settings: selectivity T47D (H1047R) over SKBR3 (WT), pAKT HTRF
quantityKind: T47D pAKT S473 HTRF IC50 (H1047R): T47D (H1047R) selectivity over SKBR3 (WT)

INSERT INTO measurements (compound, reportedmeasurement) VALUES
  ('Cc1cc(C(C)Nc2cccc3onc(O)c23)c2nc(-c3cccc(F)c3)c(C)c(=O)n2c1 (stereo not shown) [Compound 1375]', 'C (C denotes ≤5-fold)'),
  ('Cc1cc(C(C)Nc2ccccc2C(=O)O)c2nc(-c3ccnc(C)c3)c(C)c(=O)n2c1 (stereo not shown) [Compound 1202]', 'A (A denotes >20-fold)'),
  ('Cc1cc([C@H](C)Nc2ccccc2C(=O)O)c2nc(-c3ccc4c(c3)NC(=O)C4)cc(=O)n2c1 [Compound 576]', 'C (C denotes ≤5-fold)'),
  ('Cc1cc(C(C)Nc2ccccc2S(N)(=O)=O)c2nc(-c3ccncc3)cc(=O)n2c1 (stereo not shown) [Compound 346]', 'A (A denotes >20-fold)');
